Target: Fuc(a1-2)[Gal(a1-3)]Gal(b1-4)[Fuc(a1-3)]GlcNAc
Experiment: glycan array binding signal (z-score within array); higher = stronger binding
Details: glycan notation: IUPAC condensed, linker removed
This is one part of a sample in which the strongest signals are shown more often than they occur.
Entries and their glycan array binding signal (z-score) values follow.
Give the figure only, with no unit attached.

// worked examples, glycan array binding signal (z-score) included
{"Binder": "CM2 (Cordyceps militaris) (protein) MEIAEQNVGKSCAIVNLIPPKEGSNIWTAKQVTIARNLPPNRGTGRHQIDWSFGPVKVTGYVDTTNWEIGVTVSIMGIDLGTVYGNLRDGVVLNVDLFLAKGQVRFYLKNGNEVWVHLSVEIRFDGKFEGDYKIITV", "glycan array binding signal (z-score)": 1.81}
{"Binder": "CCL1 (Coprinopsis cinerea) (protein) MDTQAKPPAGRYVIYNRVLSPNGEKLALTYPGYQREALTLTPLHHSANQIWILNNWDATTSSLTPETARNTQVGWGSGNVPIVLPPGNYVWTLASSAGGYIIQDGGKTVYWNAGEAVANTKVSIGGDNGLQARWIFERV", "glycan array binding signal (z-score)": -0.138}

// below: glycan array binding signal (z-score) requested for another binder
Looking up STA (Solanum tuberosum), Q9S8M0 (protein) NASPPSPSPLPYPQCGMKKGGGKCIKTGECCSIWGWCGTTNAYCSPGYCQKQCPGPYPEGRCGWQANGKSCPTGTGQCCSNGGWCGTTSDYCASKNCQSQCKLPSPPPPPPPPSPPPPSPPSPPPPSPPPPPPPSPPPPSPPPPSPSPPPPPASPPPPPPALPYPQCGIKKGGGKCIKTGECCSIWGWCGTTNAYCSPGYCQKQCPGPYPEGRCGWQANGKSCPTGTGHCCSNAGWCGTTSDYCAPVNCQAQCNTTTLTSPIKNRMRGIESFMLNVV , I see its glycan array binding signal (z-score) listed as -0.593
